Field: pEC50. Provide a value for each of the molecules that follow.
- target: ΔF508-CFTR (Homo sapiens, UniProt P13569, DEL508-508)
- Construct: host or cells: CFBE41o-, doxycycline-inducible
- Sequence (P13569 with tags, fused parts or gaps DEL508-508): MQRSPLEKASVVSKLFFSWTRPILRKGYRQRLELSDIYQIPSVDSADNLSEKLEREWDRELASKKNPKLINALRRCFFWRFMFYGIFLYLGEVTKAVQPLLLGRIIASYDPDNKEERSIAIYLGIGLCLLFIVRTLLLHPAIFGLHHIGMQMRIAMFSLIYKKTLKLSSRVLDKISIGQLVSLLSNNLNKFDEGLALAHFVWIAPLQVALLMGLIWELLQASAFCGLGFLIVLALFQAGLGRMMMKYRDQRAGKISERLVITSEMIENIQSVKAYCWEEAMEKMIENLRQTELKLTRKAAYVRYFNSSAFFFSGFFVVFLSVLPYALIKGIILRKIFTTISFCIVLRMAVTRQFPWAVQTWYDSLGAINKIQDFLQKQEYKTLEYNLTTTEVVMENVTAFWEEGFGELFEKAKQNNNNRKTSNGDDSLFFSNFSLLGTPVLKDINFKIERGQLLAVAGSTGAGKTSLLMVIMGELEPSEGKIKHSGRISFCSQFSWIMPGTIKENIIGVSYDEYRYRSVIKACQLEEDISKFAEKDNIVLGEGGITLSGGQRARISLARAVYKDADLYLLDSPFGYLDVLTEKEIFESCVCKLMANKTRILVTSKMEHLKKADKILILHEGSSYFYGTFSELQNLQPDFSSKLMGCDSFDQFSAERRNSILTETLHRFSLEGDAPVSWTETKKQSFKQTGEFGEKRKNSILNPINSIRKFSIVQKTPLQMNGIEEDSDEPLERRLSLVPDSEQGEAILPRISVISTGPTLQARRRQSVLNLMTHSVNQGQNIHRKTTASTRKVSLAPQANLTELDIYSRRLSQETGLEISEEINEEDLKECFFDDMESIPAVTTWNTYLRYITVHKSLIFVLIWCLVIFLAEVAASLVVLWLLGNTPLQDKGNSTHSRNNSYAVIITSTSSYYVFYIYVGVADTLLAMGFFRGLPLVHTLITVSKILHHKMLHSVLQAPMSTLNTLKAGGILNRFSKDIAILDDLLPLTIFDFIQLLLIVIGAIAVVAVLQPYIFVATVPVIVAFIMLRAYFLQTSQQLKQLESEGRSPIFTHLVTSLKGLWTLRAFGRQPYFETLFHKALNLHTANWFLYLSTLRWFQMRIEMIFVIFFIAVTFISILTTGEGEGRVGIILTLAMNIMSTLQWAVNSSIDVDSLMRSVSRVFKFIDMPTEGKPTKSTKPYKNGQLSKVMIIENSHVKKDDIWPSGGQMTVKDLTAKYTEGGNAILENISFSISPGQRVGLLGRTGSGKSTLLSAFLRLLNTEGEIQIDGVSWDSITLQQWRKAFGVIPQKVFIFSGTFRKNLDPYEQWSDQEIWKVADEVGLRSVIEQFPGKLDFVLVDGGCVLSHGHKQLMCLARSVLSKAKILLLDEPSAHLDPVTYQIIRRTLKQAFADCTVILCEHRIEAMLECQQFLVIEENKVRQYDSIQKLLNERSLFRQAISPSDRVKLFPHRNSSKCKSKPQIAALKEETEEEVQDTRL
- experiment-notes: CFTR cell surface levels using HRP-tagged ΔF508-CFTR expressing CFBE cells, intrinsic corrector capacity
- Assay type: cell-based
- details: HRP-tagged ΔF508-CFTR expressing CFBE41o- cells; compound alone (intrinsic corrector capacity); 20 hours at 33° C.; read-out: EC50
By convention, pEC50 is the negative base-10 log of a molar concentration.

Recall the recorded pEC50 for `COCCN(C)c1cc(C(=O)NS(C)(=O)=O)nc2c1c(C1CCC1)nn2-c1ccccc1` with ΔF508-CFTR (Homo sapiens, UniProt P13569, DEL508-508) and state it.
5.86

Recall the recorded pEC50 for `Cc1nn(-c2ccccc2)c2nc(C(=O)NS(=O)(=O)C(F)(F)F)cc(-c3ccc(N4CCOCC4)cc3)c12` with ΔF508-CFTR (Homo sapiens, UniProt P13569, DEL508-508) and state it.
5.48

Recall the recorded pEC50 for `CN(C)S(=O)(=O)NC(=O)c1cc(N2CCC(N3CCOCC3)CC2)c2c(C3CCC3)nn(C3CCCCC3)c2n1` with ΔF508-CFTR (Homo sapiens, UniProt P13569, DEL508-508) and state it.
6.33

Recall the recorded pEC50 for `CN(C)S(=O)(=O)NC(=O)c1cc(N2CCC(N3CCN(C4COC4)CC3)CC2)c2c(C3CCC3)nn(-c3ccc(F)cc3)c2n1` with ΔF508-CFTR (Homo sapiens, UniProt P13569, DEL508-508) and state it.
6.32

Recall the recorded pEC50 for `COC1CN(C2CCN(c3cc(C(=O)NS(=O)(=O)N(C)C)nc4c3c(C3CCC3)nn4-c3ccc(F)cc3)CC2)C1` with ΔF508-CFTR (Homo sapiens, UniProt P13569, DEL508-508) and state it.
6.30

Recall the recorded pEC50 for `CN(C)S(=O)(=O)NC(=O)c1cc(N2CCC(CCN3CCOCC3)CC2)c2c(C3CCC3)nn(-c3ccc(F)cc3)c2n1` with ΔF508-CFTR (Homo sapiens, UniProt P13569, DEL508-508) and state it.
6.85

Recall the recorded pEC50 for `Cc1nn(-c2ccc(F)cc2F)c2nc(C(=O)NS(C)(=O)=O)cc(-c3ccc(N4CCOCC4)nc3)c12` with ΔF508-CFTR (Homo sapiens, UniProt P13569, DEL508-508) and state it.
6.40

Recall the recorded pEC50 for `CCS(=O)(=O)NC(=O)c1cc(-c2ccc(N(C)C3CCOCC3)nc2)c2c(C(C)C)nn(-c3cccc(F)c3)c2n1` with ΔF508-CFTR (Homo sapiens, UniProt P13569, DEL508-508) and state it.
6.26

Recall the recorded pEC50 for `COCC1CCN(c2cc(C(=O)NS(=O)(=O)CCO)nc3c2c(C2CCC2)nn3-c2ccccc2)CC1` with ΔF508-CFTR (Homo sapiens, UniProt P13569, DEL508-508) and state it.
6.53

Recall the recorded pEC50 for `CC(C)Oc1nn(C2CCCCC2)c2nc(C(=O)NS(C)(=O)=O)cc(-c3ccc(CN4CCN(C5CC5)CC4)cc3)c12` with ΔF508-CFTR (Homo sapiens, UniProt P13569, DEL508-508) and state it.
6.89

Recall the recorded pEC50 for `CC(C)Oc1nn(C2CCCCC2)c2nc(C(=O)NS(=O)(=O)N(C)C)cc(-c3ccc(N4CCN(C(C)C)CC4)cc3)c12` with ΔF508-CFTR (Homo sapiens, UniProt P13569, DEL508-508) and state it.
6.62
